The following compounds are shown together with reported Ratio IC50 values.
System: Human immunodeficiency virus 1
run description: Selectivity ratio of IC50 for HIV1 11808 harboring protease L10F/K20T/V32I/L33F/I54V/G73S/I84V/L89V/L90M mutant infected in human MT2 cells to IC50 for HIV1 NL4-3 infected in human MT2 cells
Format: functional
measurement kind: Ratio IC50

> print(dat)
                              smiles.string  number
1  Nc1nc(-c2ccc(OCc3cccc(C(=O)NCCNC(=O)c4ccc(COc5ccc(F)cc5-c5csc(N)n5)cc4)c3)cc2)cs1.O=C(O)C(F)(F)F.O=C(O)C(F)(F)F     0.7
2  Nc1nc(-c2ccc(OCc3cccc(C(=O)NCCNC(=O)c4ccc(COc5ccc(Cl)cc5-c5csc(N)n5)cc4)c3)cc2)cs1.O=C(O)C(F)(F)F.O=C(O)C(F)(F)F     0.7
3  Nc1nc(CCOC(=O)c2ccc(COc3ccccc3-c3csc(N)n3)cc2)cs1.O=C(O)C(F)(F)F.O=C(O)C(F)(F)F     3.6
4  Nc1ccc(NCCNC(=O)c2ccc(COc3ccccc3-c3csc(N)n3)cc2)nc1.O=C(O)C(F)(F)F.O=C(O)C(F)(F)F.O=C(O)C(F)(F)F     0.8
5  Nc1nc(-c2ccc(OCc3cccc(C(=O)NCCNC(=O)c4ccc(COc5ccccc5-c5csc(N)n5)cc4)c3)cc2)cs1.O=C(O)C(F)(F)F.O=C(O)C(F)(F)F     1.3

----------
Tested on: Human immunodeficiency virus 1
run description: Antiviral activity against wild type HIV1 NL4-3 infected in human TZM-bl cells assessed as reduction in viral replication after 48 hrs by bright Glo-luciferase reporter gene assay based BiCycle assay
Format: functional, organism-based
test conditions: Human immunodeficiency virus 1, NL4-3, TZM-bl
pIC50: −log10 of the molar value.
measurement kind: pIC50

> print(dat)
                               smiles.string  measurement.kind  limit.sign  number
 1  Nc1ccc(NCCNC(=O)c2ccc(COc3ccccc3-c3csc(N)n3)cc2)nc1.O=C(O)C(F)(F)F.O=C(O)C(F)(F)F.O=C(O)C(F)(F)F             pIC50           =    5.42
 2  Nc1nc(CCNC(=O)c2ccc(COc3ccccc3-c3csc(N)n3)cc2)cs1             pIC50           =    4.44
 3  Nc1nc(CCOC(=O)c2ccc(COc3ccccc3-c3csc(N)n3)cc2)cs1.O=C(O)C(F)(F)F.O=C(O)C(F)(F)F             pIC50           =    6.52
 4  Nc1nc(-c2ccccc2OCc2ccc(C(=O)NCCN3CCOCC3)cc2)cs1             pIC50           <    4.00
 5  Nc1nc(-c2ccc(C(=O)NCCNC(=O)c3ccc(COc4ccccc4-c4csc(N)n4)cc3)cc2)cs1             pIC50           =    5.30
 6  Nc1nc(-c2ccc(OCc3cccc(C(=O)N4CCN(C(=O)c5ccc(COc6ccccc6-c6csc(N)n6)cc5)CC4)c3)cc2)cs1             pIC50           =    4.55
 7  Nc1nc(-c2ccc(OCc3cccc(C(=O)NCCNC(=O)c4ccc(COc5ccccc5-c5coc(N)n5)cc4)c3)cc2)co1             pIC50           =    5.21
 8  Nc1nc(-c2ccc(OCc3cccc(C(=O)NCCCCNC(=O)c4ccc(COc5ccccc5-c5csc(N)n5)cc4)c3)cc2)cs1             pIC50           =    5.30
 9  Nc1nc(CCc2nc(-c3ccc(COc4ccccc4-c4csc(N)n4)cc3)no2)cs1             pIC50           =    5.22
10  Nc1nc(-c2ccc(OCc3cccc(C(=O)NCCNC(=O)c4ccc(COc5ccc(Cl)cc5-c5csc(N)n5)cc4)c3)cc2)cs1.O=C(O)C(F)(F)F.O=C(O)C(F)(F)F             pIC50           =    6.10
11  Nc1nc(-c2ccc(OCc3cccc(C(=O)NCCCNC(=O)c4ccc(COc5ccccc5-c5csc(N)n5)cc4)c3)cc2)cs1             pIC50           =    4.92
12  Nc1nc(-c2ccc(OCc3cccc(C(=O)NCCNC(=O)c4ccc(COc5ccccc5-c5csc(N)n5)cc4)c3)cc2)cs1.O=C(O)C(F)(F)F.O=C(O)C(F)(F)F             pIC50           =    5.89
13  Nc1nc(CC(=O)NCCNC(=O)c2ccc(COc3ccccc3-c3csc(N)n3)cc2)cs1             pIC50           <    4.00
14  Nc1ccc(NCCNS(=O)(=O)c2ccc(COc3ccccc3-c3csc(N)n3)cc2)nc1             pIC50           <    4.00
15  Nc1nc(-c2ccc(OCc3cccc(C(=O)NCCNC(=O)c4ccc(COc5ccc(F)cc5-c5csc(N)n5)cc4)c3)cc2)cs1.O=C(O)C(F)(F)F.O=C(O)C(F)(F)F             pIC50           =    5.96
16  Nc1nc(-c2ccc(C(=O)NCCCNC(=O)c3ccc(COc4ccccc4-c4csc(N)n4)cc3)cc2)cs1             pIC50           =    4.82
17  Nc1nc(-c2ccccc2OCc2ccc(C(=O)NCCCNc3ccc([N+](=O)[O-])cn3)cc2)cs1             pIC50           =    4.92
18  Nc1nc(-c2ccc(OCc3cccc(C(=O)NCCNC(=O)c4ccc(COc5cccc6sc(N)nc56)cc4)c3)cc2)cs1             pIC50           =    4.43

----------
run description: Inhibition of synthesized Nucleocapsid protein (11 to 55 residues) assessed as reduction in NC-induced cTAR DNA destabilization pre-treated with cTAR and Nucleocapsid (11-55) for 15 mins followed by compound addition at 10 uM by spectroflurometry relative to control
measurement kind: inhibition

> print(dat)
                              smiles.string  measurement.kind  result
1     Nc1nc(-c2ccccc2OCc2ccc(C(=O)O)cc2)cs1        inhibition      6%
2  Nc1nc(-c2ccc(OCc3cccc(C(=O)NCCNC(=O)c4ccc(COc5ccccc5-c5csc(N)n5)cc4)c3)cc2)cs1.O=C(O)C(F)(F)F.O=C(O)C(F)(F)F        inhibition     24%
3  Nc1nc(-c2ccccc2OCc2ccc(C(=O)NCCCNc3ccc([N+](=O)[O-])cn3)cc2)cs1        inhibition     21%
4  Nc1nc(-c2ccc(OCc3cccc(C(=O)NCCNC(=O)c4ccc(COc5ccc(Cl)cc5-c5csc(N)n5)cc4)c3)cc2)cs1.O=C(O)C(F)(F)F.O=C(O)C(F)(F)F        inhibition     20%
5  Nc1nc(-c2ccc(OCc3cccc(C(=O)NCCCNC(=O)c4ccc(COc5ccccc5-c5csc(N)n5)cc4)c3)cc2)cs1        inhibition     16%
6  Nc1nc(-c2ccc(OCc3cccc(C(=O)NCCNC(=O)c4ccc(COc5cccc6sc(N)nc56)cc4)c3)cc2)cs1        inhibition     17%
7  Nc1nc(-c2ccc(OCc3cccc(C(=O)NCCNC(=O)c4ccc(COc5ccc(F)cc5-c5csc(N)n5)cc4)c3)cc2)cs1.O=C(O)C(F)(F)F.O=C(O)C(F)(F)F        inhibition     16%

----------
run description: Selectivity index, ratio of TD50 for cytotoxicity aginst human PBMC cells to IC50 for antiviral activity against wild type HIV1 NL4-3 infected in human TZM-bl cells assessed as reduction in viral replication after 48 hrs by bright Glo-luciferase reporter gene assay based BiCycle assay
Assay type: toxicity, cell-based
test conditions: read-out: Selectivity Index
measurement kind: selectivity ratio at 48 h

> print(dat)
                              smiles.string           measurement.kind  limit.sign  number
1  Nc1nc(-c2ccc(OCc3cccc(C(=O)NCCNC(=O)c4ccc(COc5ccc(Cl)cc5-c5csc(N)n5)cc4)c3)cc2)cs1.O=C(O)C(F)(F)F.O=C(O)C(F)(F)F  selectivity ratio at 48 h           >      63
2  Nc1nc(CCOC(=O)c2ccc(COc3ccccc3-c3csc(N)n3)cc2)cs1.O=C(O)C(F)(F)F.O=C(O)C(F)(F)F  selectivity ratio at 48 h           =      53
3  Nc1nc(-c2ccc(OCc3cccc(C(=O)NCCCCNC(=O)c4ccc(COc5ccccc5-c5csc(N)n5)cc4)c3)cc2)cs1  selectivity ratio at 48 h           >      20
4  Nc1nc(-c2ccc(OCc3cccc(C(=O)NCCNC(=O)c4ccc(COc5ccc(F)cc5-c5csc(N)n5)cc4)c3)cc2)cs1.O=C(O)C(F)(F)F.O=C(O)C(F)(F)F  selectivity ratio at 48 h           >      45
5  Nc1ccc(NCCNC(=O)c2ccc(COc3ccccc3-c3csc(N)n3)cc2)nc1.O=C(O)C(F)(F)F.O=C(O)C(F)(F)F.O=C(O)C(F)(F)F  selectivity ratio at 48 h           =      12
6  Nc1nc(-c2ccc(OCc3cccc(C(=O)NCCNC(=O)c4ccc(COc5ccccc5-c5csc(N)n5)cc4)c3)cc2)cs1.O=C(O)C(F)(F)F.O=C(O)C(F)(F)F  selectivity ratio at 48 h           =      23
